# Measured Target: MrgC11 (Mus musculus)
# Construct: A full-length MrgC11 cDNA was cloned from the newborn DRG cDNA library; expressed in transfected cells
# Sequence (Q8CIP3 1-322): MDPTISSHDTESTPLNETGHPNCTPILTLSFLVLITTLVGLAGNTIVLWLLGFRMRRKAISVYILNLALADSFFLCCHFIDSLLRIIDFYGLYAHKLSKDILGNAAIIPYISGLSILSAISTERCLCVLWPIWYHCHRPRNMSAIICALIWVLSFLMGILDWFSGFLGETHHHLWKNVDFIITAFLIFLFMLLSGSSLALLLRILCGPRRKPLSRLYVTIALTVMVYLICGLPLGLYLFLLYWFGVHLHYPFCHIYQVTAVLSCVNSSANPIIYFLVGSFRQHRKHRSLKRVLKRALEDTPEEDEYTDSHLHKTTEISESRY
# Procedure Details: calcium-mobilization assay (FLEXstation, Fura-2/AM) in HEK-MrgC11 cells
# Type: cell-based
Where no end group is shown, it is not given here.
For each of the substances below, state its pEC50.
FYI, pEC50 means -log10 of a concentration in mol per litre.

Task: Which measured pEC50 value corresponds to YGGFMRF-OH [Met-Enk-RF] ?
Output: 6.26

Task: Which measured pEC50 value corresponds to KHEYLRF-NH2 [AF-2] ?
Output: 6.89

Task: Which measured pEC50 value corresponds to AGEGLNSQFWSLAAPQRF-NH2 [NPAF] ?
Output: 6.55

Task: Which measured pEC50 value corresponds to IRPKLKWDNQKRYG [Dynnorphin-14] ?
Output: 7.66

Task: Which measured pEC50 value corresponds to YGGFMRRVGRPEWWMDYQKRYGGFL [BAM3200] ?
Output: 6.52

Task: Which measured pEC50 value corresponds to YGGFMRF-NH2 [Met-ENK-RFamide] ?
Output: 6.88

Measured values drawn from patent US20040121410A1 for this set.
